- protocol-text: Half life in human liver microsomes
- Type: ADME, Microsome
Could you please mark 1.0 for values of half-life below 6 h and 0.0 for values at or above it?

                               smiles_input  assigned_category
0  CCOC(=O)Nc1ccc(NCc2ccc(C(F)(F)F)nc2)c(F)c1N                0.0
1  CCOC(=O)Nc1ccc(NCc2ccc(C(F)(F)F)cc2)c(F)c1N                1.0
2         CCOC(=O)Nc1ccc(NCc2ccc(F)cc2)cc1N                0.0
3  Nc1c(NC(=O)OC2CC2)cc(F)c(NCc2ccc(C(F)(F)F)cc2F)c1F                1.0
4  CC(C)OC(=O)Nc1ccc(NCc2ccc(C(F)(F)F)cc2)c(F)c1N                0.0

Source of measurements: ChEMBL document CHEMBL4433246
